- CONDITION_DESCRIPTION: a range is the spread between reports
READOUT_TYPE: melting point

{"COMPOUND": "NNc1c(F)c(F)cc(F)c1F", "READOUT_TYPE": "melting point", "MEASURED_VALUE": "89 to 92 °C"}
{"COMPOUND": "N#Cc1ccccc1Br", "READOUT_TYPE": "melting point", "MEASURED_VALUE": "55 to 55.5 °C"}
{"COMPOUND": "CC(C)C(O)C(C)(C)CO (stereo not drawn)", "READOUT_TYPE": "melting point", "MEASURED_VALUE": "51.5 to 52 °C"}
{"COMPOUND": "CCOC(=O)C(O)(c1ccccc1)c1ccccc1", "READOUT_TYPE": "melting point", "MEASURED_VALUE": "30 to 34 °C"}
{"COMPOUND": "Oc1ccnc2ccccc12", "READOUT_TYPE": "melting point", "MEASURED_VALUE": "201 to 203 °C"}
{"COMPOUND": "O=C1C(Cl)=CC(=NCl)C=C1Cl", "READOUT_TYPE": "melting point", "MEASURED_VALUE": "66 to 67 °C"}
{"COMPOUND": "N#Cc1cccc(C(=O)O)c1", "READOUT_TYPE": "melting point", "MEASURED_VALUE": "219 to 223 °C"}
{"COMPOUND": "CCCCOc1ccc(C(=O)O)cc1", "READOUT_TYPE": "melting point", "MEASURED_VALUE": "147 to 148 °C"}

The reported numbers originate from a melting point compilation (Tetko et al.).
